# measurementSetup: in ethyl acetate, 303.15 K
measuredQuantity: solubility (mole fraction)
Give bare numbers.

Req: Report solubility (mole fraction), nothing else, for this compound: CC(=O)OC(c1ccccc1)C(Cl)(Cl)Cl (stereo unspecified)
Resp: 0.19

====

# measurementSetup: in n-propanol, 328.15 K
measuredQuantity: solubility (mole fraction)

Req: Report solubility (mole fraction), nothing else, for this compound: CC(=O)OC(c1ccccc1)C(Cl)(Cl)Cl (stereo unspecified)
Resp: 0.0905

====

# measurementSetup: in ethyl acetate, 313.15 K
measuredQuantity: solubility (mole fraction)
Numbers only.

Req: Report solubility (mole fraction), nothing else, for this compound: CC(=O)OC(c1ccccc1)C(Cl)(Cl)Cl (stereo unspecified)
Resp: 0.251
